ASSAY TARGET: Mitogen-activated protein kinase 14 (Homo sapiens, UniProt Q16539)
Sequence (Q16539 whole entry): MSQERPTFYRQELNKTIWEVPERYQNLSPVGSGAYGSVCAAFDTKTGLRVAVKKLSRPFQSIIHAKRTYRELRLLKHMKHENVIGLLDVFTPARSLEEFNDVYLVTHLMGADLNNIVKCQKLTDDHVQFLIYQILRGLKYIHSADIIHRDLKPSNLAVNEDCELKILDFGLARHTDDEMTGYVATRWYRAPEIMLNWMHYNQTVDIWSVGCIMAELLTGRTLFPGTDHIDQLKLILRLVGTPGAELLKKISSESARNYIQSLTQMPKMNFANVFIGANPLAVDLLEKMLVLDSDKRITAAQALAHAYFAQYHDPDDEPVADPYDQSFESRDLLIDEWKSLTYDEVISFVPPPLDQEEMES
ASSAY NAME: Inhibition of P38a in human HeLa cells lysate pre incubated for 15 mins followed by ATP acyl phosphate probe addition and measured after 10 mins by LC-MS/MS analysis
Type: subcellular
MEASURED ATTRIBUTE: IC50

Ask: Fill in IC50 for record CCOc1cc(N2CCC(O)CC2)ccc1Nc1ncc2c(n1)N(C)c1ccccc1C(=O)N2C
Reply: > 50 µM

----------
ASSAY TARGET: Serine-protein kinase ATM (Homo sapiens, UniProt Q13315)
Sequence (Q13315 whole entry): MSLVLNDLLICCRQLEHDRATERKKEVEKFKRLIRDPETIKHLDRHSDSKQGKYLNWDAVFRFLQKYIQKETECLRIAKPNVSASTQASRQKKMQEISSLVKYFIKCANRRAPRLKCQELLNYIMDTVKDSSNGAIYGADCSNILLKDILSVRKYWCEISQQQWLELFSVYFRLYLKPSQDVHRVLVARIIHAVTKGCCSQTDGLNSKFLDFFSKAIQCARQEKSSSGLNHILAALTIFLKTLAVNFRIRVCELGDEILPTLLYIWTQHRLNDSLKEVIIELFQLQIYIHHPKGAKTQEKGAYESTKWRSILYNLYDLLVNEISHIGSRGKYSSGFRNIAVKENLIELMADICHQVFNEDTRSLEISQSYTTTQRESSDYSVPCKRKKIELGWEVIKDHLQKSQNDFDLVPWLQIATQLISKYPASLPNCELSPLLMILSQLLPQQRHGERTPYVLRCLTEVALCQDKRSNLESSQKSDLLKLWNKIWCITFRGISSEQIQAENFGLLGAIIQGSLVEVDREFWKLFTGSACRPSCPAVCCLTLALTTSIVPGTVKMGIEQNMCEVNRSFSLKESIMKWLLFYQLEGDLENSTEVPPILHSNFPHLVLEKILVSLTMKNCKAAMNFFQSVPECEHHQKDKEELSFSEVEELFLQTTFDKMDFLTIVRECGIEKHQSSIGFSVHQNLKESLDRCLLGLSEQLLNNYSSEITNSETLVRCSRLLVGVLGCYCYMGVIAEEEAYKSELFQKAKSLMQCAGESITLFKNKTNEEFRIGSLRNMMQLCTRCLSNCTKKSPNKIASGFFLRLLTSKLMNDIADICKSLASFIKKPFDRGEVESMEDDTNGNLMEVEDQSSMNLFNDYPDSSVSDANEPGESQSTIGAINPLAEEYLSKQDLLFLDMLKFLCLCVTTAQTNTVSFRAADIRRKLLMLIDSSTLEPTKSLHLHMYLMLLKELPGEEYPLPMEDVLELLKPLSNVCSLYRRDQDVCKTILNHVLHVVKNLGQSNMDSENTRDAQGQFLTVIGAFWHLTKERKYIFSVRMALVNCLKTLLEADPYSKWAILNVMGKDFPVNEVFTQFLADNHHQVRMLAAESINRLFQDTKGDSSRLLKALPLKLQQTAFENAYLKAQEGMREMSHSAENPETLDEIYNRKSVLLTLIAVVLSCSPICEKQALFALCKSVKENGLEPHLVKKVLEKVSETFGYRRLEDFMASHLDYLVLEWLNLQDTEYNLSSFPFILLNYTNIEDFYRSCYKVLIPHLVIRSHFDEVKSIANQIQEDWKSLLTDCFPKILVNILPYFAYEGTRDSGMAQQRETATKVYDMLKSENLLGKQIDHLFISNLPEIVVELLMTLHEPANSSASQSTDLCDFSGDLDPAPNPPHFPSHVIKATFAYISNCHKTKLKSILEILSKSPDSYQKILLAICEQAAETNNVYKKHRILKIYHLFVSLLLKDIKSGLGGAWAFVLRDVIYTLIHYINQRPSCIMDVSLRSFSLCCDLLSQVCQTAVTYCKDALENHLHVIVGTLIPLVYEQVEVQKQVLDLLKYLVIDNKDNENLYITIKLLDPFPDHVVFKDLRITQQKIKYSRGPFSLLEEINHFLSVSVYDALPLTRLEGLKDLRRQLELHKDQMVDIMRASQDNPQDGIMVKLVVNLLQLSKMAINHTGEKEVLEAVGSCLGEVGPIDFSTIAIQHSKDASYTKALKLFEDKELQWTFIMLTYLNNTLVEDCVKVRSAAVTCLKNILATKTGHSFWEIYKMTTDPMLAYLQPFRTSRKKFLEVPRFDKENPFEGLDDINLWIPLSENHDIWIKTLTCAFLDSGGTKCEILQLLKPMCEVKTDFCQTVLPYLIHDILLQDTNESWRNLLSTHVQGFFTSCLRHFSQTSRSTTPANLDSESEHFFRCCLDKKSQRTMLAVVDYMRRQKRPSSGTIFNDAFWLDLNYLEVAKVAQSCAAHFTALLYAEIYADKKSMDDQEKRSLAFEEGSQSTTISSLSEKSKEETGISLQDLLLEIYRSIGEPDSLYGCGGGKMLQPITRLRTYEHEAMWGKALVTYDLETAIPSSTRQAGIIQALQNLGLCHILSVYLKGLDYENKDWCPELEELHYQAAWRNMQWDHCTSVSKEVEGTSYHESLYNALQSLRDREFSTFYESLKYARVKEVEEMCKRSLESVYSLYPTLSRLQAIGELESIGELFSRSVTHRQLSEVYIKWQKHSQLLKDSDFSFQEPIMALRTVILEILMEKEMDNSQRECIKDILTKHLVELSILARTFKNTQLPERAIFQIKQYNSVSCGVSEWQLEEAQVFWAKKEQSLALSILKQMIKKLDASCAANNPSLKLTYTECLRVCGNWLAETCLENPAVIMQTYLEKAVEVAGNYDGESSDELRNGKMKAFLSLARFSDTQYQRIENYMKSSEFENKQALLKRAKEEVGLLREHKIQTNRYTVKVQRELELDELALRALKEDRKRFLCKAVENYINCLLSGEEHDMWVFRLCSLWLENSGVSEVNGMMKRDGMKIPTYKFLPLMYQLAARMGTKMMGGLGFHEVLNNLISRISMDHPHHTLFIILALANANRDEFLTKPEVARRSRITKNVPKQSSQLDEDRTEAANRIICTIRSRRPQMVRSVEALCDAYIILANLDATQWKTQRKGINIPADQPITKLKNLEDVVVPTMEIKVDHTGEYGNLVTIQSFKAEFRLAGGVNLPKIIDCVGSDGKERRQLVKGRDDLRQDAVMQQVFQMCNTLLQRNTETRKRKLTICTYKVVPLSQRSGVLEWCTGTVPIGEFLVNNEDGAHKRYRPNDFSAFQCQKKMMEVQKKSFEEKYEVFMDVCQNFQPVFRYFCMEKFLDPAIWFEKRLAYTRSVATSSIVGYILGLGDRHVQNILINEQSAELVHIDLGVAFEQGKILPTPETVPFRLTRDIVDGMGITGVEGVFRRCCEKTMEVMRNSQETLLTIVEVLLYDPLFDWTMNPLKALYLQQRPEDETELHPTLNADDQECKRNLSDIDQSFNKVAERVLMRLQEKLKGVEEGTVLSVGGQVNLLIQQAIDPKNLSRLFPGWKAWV
ASSAY NAME: Inhibition of ATM in human HeLa cells lysate pre incubated for 15 mins followed by ADP acyl phosphate probe addition and measured after 10 mins by LC-MS/MS analysis
MEASURED ATTRIBUTE: IC50

Ask: Fill in IC50 for record CCOc1cc(N2CCC(O)CC2)ccc1Nc1ncc2c(n1)N(C)c1ccccc1C(=O)N2C
Reply: > 50 µM

----------
ASSAY TARGET: Dual specificity mitogen-activated protein kinase kinase 7 (Homo sapiens, UniProt O14733)
Sequence (O14733 whole entry): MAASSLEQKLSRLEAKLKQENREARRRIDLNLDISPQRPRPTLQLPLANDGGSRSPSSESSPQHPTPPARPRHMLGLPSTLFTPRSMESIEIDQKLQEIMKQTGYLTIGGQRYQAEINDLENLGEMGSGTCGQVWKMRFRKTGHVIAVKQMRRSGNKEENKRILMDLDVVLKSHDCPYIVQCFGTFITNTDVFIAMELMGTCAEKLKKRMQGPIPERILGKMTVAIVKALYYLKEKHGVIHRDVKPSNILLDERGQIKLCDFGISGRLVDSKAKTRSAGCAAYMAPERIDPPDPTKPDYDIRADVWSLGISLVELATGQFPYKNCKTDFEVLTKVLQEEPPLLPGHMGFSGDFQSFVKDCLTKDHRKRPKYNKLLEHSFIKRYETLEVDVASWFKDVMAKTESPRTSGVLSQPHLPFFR
ASSAY NAME: Inhibition of MAP2K7 in human HeLa cells lysate pre incubated for 15 mins followed by ADP acyl phosphate probe addition and measured after 10 mins by LC-MS/MS analysis
MEASURED ATTRIBUTE: IC50

Ask: Fill in IC50 for record CCOc1cc(N2CCC(O)CC2)ccc1Nc1ncc2c(n1)N(C)c1ccccc1C(=O)N2C
Reply: > 50 µM

----------
ASSAY TARGET: UniProtKB P30530
Sequence (P30530 whole entry): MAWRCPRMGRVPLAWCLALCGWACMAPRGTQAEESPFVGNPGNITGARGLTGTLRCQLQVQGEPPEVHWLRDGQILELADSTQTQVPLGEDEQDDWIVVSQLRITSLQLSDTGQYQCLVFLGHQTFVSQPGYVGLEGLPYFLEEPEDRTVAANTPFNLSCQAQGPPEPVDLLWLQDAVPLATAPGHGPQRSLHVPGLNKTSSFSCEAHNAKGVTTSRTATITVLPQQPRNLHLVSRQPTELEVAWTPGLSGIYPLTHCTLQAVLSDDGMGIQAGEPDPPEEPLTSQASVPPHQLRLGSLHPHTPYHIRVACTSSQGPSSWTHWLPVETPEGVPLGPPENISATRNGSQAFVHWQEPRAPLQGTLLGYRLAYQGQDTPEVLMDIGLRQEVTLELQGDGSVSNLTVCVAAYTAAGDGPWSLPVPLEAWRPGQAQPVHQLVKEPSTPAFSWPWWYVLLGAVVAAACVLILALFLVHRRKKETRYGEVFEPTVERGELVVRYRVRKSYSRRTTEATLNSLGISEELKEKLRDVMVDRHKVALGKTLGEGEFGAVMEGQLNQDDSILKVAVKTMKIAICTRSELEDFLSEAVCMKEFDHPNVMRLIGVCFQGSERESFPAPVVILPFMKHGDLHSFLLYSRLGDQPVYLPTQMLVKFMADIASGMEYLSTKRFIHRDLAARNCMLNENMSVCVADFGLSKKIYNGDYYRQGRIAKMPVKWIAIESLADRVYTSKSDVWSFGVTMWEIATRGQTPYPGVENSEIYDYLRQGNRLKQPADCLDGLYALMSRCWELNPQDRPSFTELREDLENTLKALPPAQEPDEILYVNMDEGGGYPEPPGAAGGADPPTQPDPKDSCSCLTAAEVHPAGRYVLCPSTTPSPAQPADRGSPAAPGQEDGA
ASSAY NAME: Inhibition of AXL in human HeLa cells lysate pre incubated for 15 mins followed by ADP acyl phosphate probe addition and measured after 10 mins by LC-MS/MS analysis
MEASURED ATTRIBUTE: IC50

Ask: Fill in IC50 for record CCOc1cc(N2CCC(O)CC2)ccc1Nc1ncc2c(n1)N(C)c1ccccc1C(=O)N2C
Reply: > 50 µM
